Tested on: giant foxtail (Setaria faberi)
Test: Test G Post-Emergence Protocol
Assay type: in vivo
Details: Setaria faberi, post-emergence, 312 h, 250 g ai/ha, evaluated after 13 days, read-out: damage to plant, Foxtail, Giant (100=total damage to plant; 0=no damage to plant)
Text: Seeds of corn (Zea mays), giant foxtail (Setaria faberi), barnyardgrass (Echinochloa crus-galli), ivy-leaved morning glory (Ipomoea hederacea), redroot pigweed (Amaranthus retroflexus) and velvetleaf (Abutilon theophrasti) were sown in standard soil in pots. […]
Assay readout: pest or weed control at 250 g/ha (%)
One number for each entry, in %.

Dear colleague, could you please provide pest or weed control at 250 g/ha for the compounds listed below?
1. CN1C[C@@H](c2ccc(C(F)(F)F)cc2)[C@H](C(=O)Nc2c[nH]nc2C(F)(F)F)C1=O (racemic)
2. CN1C[C@H](c2ccc(C(F)(F)F)cc2)[C@@H](C(=O)Nc2cccc(F)n2)C1=O (racemic)
3. CN1C[C@H](c2ccc(C(F)(F)F)cc2)[C@@H](C(=O)Nc2ncc(F)cc2F)C1=O (racemic)
4. C[C@@]1(C(=O)Nc2cccc(F)c2F)C(=O)NC[C@@H]1c1ccc(C(F)(F)F)cc1 (racemic)

Result:
[0, 60, 10, 0]
